# assayName: Trans-enterocyte transport of CA in Caco-2 cell monolayer
# Assay type: in vitro ADME, human
# conditionSet: human, Caco-2, CA 50 μM, 1.5 h; read-out: Papp AP-BL
reportedMetric: Papp A→B at 1.5 h, 50 μM (×10⁻⁶ cm/s)

smilesrecord=CC(C)c1cc2c(c(O)c1O)[C@@]1(C(=O)O)CCCC(C)(C)[C@@H]1CC2 reportedmetric="Papp A→B at 1.5 h, 50 μM" unitdescriptor="×10⁻⁶ cm/s" reportedresult=0.69

* * *

# assayName: Effect of verapamil, PEG 400 and EDTA on trans-enterocyte transport of CA
# Type: in vitro ADME, human
# conditionSet: human, Caco-2, with verapamil 100 μmol/L, CA 100 μM, 2.5 h, + 100 μmoL/L verapamil; read-out: Papp AP to BL
reportedMetric: Papp A→B at 2.5 h, 100 μM (×10⁻⁶ cm/s)

smilesrecord=CC(C)c1cc2c(c(O)c1O)[C@@]1(C(=O)O)CCCC(C)(C)[C@@H]1CC2 unitdescriptor="×10⁻⁶ cm/s" reportedresult=0.95

* * *

# assayName: Effect of verapamil, PEG 400 and EDTA on trans-enterocyte transport of CA
# Format: in vitro ADME, human
# conditionSet: human, Caco-2, CA 100 μM, Average of 0.5-3.0 h, + 5% PEG 400; read-out: Papp AP to BL
reportedMetric: Papp A→B at 100 μM (×10⁻⁶ cm/s)

smilesrecord=CC(C)c1cc2c(c(O)c1O)[C@@]1(C(=O)O)CCCC(C)(C)[C@@H]1CC2 reportedmetric="Papp A→B at 100 μM" unitdescriptor="×10⁻⁶ cm/s" reportedresult=2.76

* * *

# assayName: Effect of verapamil, PEG 400 and EDTA on trans-enterocyte transport of CA
# Assay type: in vitro ADME, human
# conditionSet: human, Caco-2, with verapamil 100 μmoL/L, CA 75 μM, 1.0 h, + 100 μmoL/L verapamil; read-out: Papp AP to BL
reportedMetric: Papp A→B at 1 h, 75 μM (×10⁻⁶ cm/s)

smilesrecord=CC(C)c1cc2c(c(O)c1O)[C@@]1(C(=O)O)CCCC(C)(C)[C@@H]1CC2 reportedresult=1.32

* * *

# assayName: Effect of verapamil, PEG 400 and EDTA on trans-enterocyte transport of CA
# Format: in vitro ADME, human
# conditionSet: human, Caco-2, CA 75 μM, 1.0 h, + 5% PEG 400; read-out: Papp AP to BL
# Method: CA was dissolved in HBSS solution at 50, 75, and 100 μM. The HBSS solution containing CA combined with 0.5% Tween 80, 5 mmol/L EDTA or 5% PEG 400 was prepared. The cumulative migration (Qr), apparent permeability coefficient (Papp), and the Papp value of bi-direction transport of CA were calculated according to formulas. […]
reportedMetric: Papp A→B at 1 h, 75 μM (×10⁻⁶ cm/s)

smilesrecord=CC(C)c1cc2c(c(O)c1O)[C@@]1(C(=O)O)CCCC(C)(C)[C@@H]1CC2 reportedresult=2.99

* * *

# assayName: Trans-enterocyte transport of CA in Caco-2 cell monolayer
# Assay type: in vitro ADME, human
# conditionSet: human, Caco-2, CA 50 μM, 3.0 h
reportedMetric: efflux ratio at 3 h, 50 μM

compound="CC(C)c1cc2c(c(O)c1O)[C@@]1(C(=O)O)CCCC(C)(C)[C@@H]1CC2 [CA, Carnosic acid]" reportedmetric="efflux ratio at 3 h, 50 μM" reportedresult=1.32

* * *

# assayName: Effect of verapamil, PEG 400 and EDTA on trans-enterocyte transport of CA
# Type: in vitro ADME, human
# conditionSet: human, Caco-2, CA 100 μM, 1.0 h, + 5% PEG 400; read-out: Papp AP to BL
# Description: CA was dissolved in HBSS solution at 50, 75, and 100 μM. The HBSS solution containing CA combined with 0.5% Tween 80, 5 mmol/L EDTA or 5% PEG 400 was prepared. The cumulative migration (Qr), apparent permeability coefficient (Papp), and the Papp value of bi-direction transport of CA were calculated according to formulas. […]
reportedMetric: Papp A→B at 1 h, 100 μM (×10⁻⁶ cm/s)

smilesrecord=CC(C)c1cc2c(c(O)c1O)[C@@]1(C(=O)O)CCCC(C)(C)[C@@H]1CC2 reportedmetric="Papp A→B at 1 h, 100 μM" reportedresult=3.59

* * *

# assayName: Trans-enterocyte transport of CA in Caco-2 cell monolayer
# Type: in vitro ADME, human
# conditionSet: human, Caco-2, CA 50 μM, 2.5 h, CA alone; read-out: Papp AP to BL
reportedMetric: Papp A→B at 2.5 h, 50 μM (×10⁻⁶ cm/s)

smilesrecord=CC(C)c1cc2c(c(O)c1O)[C@@]1(C(=O)O)CCCC(C)(C)[C@@H]1CC2 reportedresult=0.57

* * *

# assayName: Trans-enterocyte transport of CA in Caco-2 cell monolayer
# Type: in vitro ADME, human
# conditionSet: human, Caco-2, CA 100 μM, 3.0 h
reportedMetric: efflux ratio at 3 h, 100 μM

compound="CC(C)c1cc2c(c(O)c1O)[C@@]1(C(=O)O)CCCC(C)(C)[C@@H]1CC2 [CA, Carnosic acid]" reportedmetric="efflux ratio at 3 h, 100 μM" reportedresult=1.53

* * *

# assayName: Trans-enterocyte transport of CA in Caco-2 cell monolayer
# Assay type: in vitro ADME, human
# conditionSet: human, Caco-2, CA 75 μM, Average of 0.5-3.0 h
reportedMetric: Papp B→A at 75 μM (×10⁻⁶ cm/s)

smilesrecord=CC(C)c1cc2c(c(O)c1O)[C@@]1(C(=O)O)CCCC(C)(C)[C@@H]1CC2 reportedresult=0.66

* * *

# assayName: Trans-enterocyte transport of CA in Caco-2 cell monolayer
# Format: in vitro ADME, human
# conditionSet: human, Caco-2, CA 50 μM, 3.0 h, CA alone; read-out: Papp AP to BL
# Method: Caco-2 were cultured in EMEM complete medium containing 10% FBS, 1% non-essential amino acids, and 1% penicillin-streptomycin double antibody, and the culture conditions were 37 °C, 5% CO2, in a constant temperature incubator [16]. We first established non-toxic dose ranges of CA in Caco-2 cells using MTT assay. […] A quantity of 200 μL of medium was added to each well to obtain a series of CA solutions (concentrations of 25, 50, 75, and 100 μmoL). […]
reportedMetric: Papp A→B at 3 h, 50 μM (×10⁻⁶ cm/s)

smilesrecord=CC(C)c1cc2c(c(O)c1O)[C@@]1(C(=O)O)CCCC(C)(C)[C@@H]1CC2 reportedmetric="Papp A→B at 3 h, 50 μM" reportedresult=0.22

* * *

# assayName: Effect of verapamil, PEG 400 and EDTA on trans-enterocyte transport of CA
# Type: in vitro ADME, human
# conditionSet: human, Caco-2, CA 50 μM, 0.5 h, + 5% PEG 400; read-out: Papp AP to BL
reportedMetric: Papp A→B at 0.5 h, 50 μM (×10⁻⁶ cm/s)

compound="CC(C)c1cc2c(c(O)c1O)[C@@]1(C(=O)O)CCCC(C)(C)[C@@H]1CC2 [CA, Carnosic acid]" reportedmetric="Papp A→B at 0.5 h, 50 μM" reportedresult=3.76

* * *

# assayName: Trans-enterocyte transport of CA in Caco-2 cell monolayer
# Format: in vitro ADME, human
# conditionSet: human, Caco-2, CA 50 μM, 2.0 h; read-out: Papp AP-BL
# Procedure: Caco-2 were cultured in EMEM complete medium containing 10% FBS, 1% non-essential amino acids, and 1% penicillin-streptomycin double antibody, and the culture conditions were 37 °C, 5% CO2, in a constant temperature incubator [16]. We first established non-toxic dose ranges of CA in Caco-2 cells using MTT assay. […] A quantity of 200 μL of medium was added to each well to obtain a series of CA solutions (concentrations of 25, 50, 75, and 100 μmoL). […]
reportedMetric: Papp A→B at 2 h, 50 μM (×10⁻⁶ cm/s)

smilesrecord=CC(C)c1cc2c(c(O)c1O)[C@@]1(C(=O)O)CCCC(C)(C)[C@@H]1CC2 reportedmetric="Papp A→B at 2 h, 50 μM" reportedresult=1.11

* * *

# assayName: Effect of verapamil, PEG 400 and EDTA on trans-enterocyte transport of CA
# Assay type: in vitro ADME, human
# conditionSet: human, Caco-2, CA 100 μM, 2.5 h, + 5 mmoL/L EDTA; read-out: Papp AP to BL
reportedMetric: Papp A→B at 2.5 h, 100 μM (×10⁻⁶ cm/s)

compound="CC(C)c1cc2c(c(O)c1O)[C@@]1(C(=O)O)CCCC(C)(C)[C@@H]1CC2 [CA, Carnosic acid]" reportedmetric="Papp A→B at 2.5 h, 100 μM" reportedresult=1.82

* * *

# assayName: Effect of verapamil, PEG 400 and EDTA on trans-enterocyte transport of CA
# Format: in vitro ADME, human
# conditionSet: human, Caco-2, CA 100 μM, 0.5 h, + 5 mmoL/L EDTA; read-out: Papp AP to BL
reportedMetric: Papp A→B at 0.5 h, 100 μM (×10⁻⁶ cm/s)

smilesrecord=CC(C)c1cc2c(c(O)c1O)[C@@]1(C(=O)O)CCCC(C)(C)[C@@H]1CC2 reportedresult=0.38
